System: p53
assay: p53 reporter gene assay (U2OS-derived luciferase reporter cell line)
condition_details: compared to basal luciferase activity, 16-h time point, at concentration of maximal induction
Non-standard residues stand in square brackets, D forms with d. Residues, ends and D or L forms follow the SMILES beside them. Trp(6-Cl) = N[C@@H](Cc1c[nH]c2cc(Cl)ccc12)C(=O)O; Pmp = N[C@@H](Cc1ccc(CP(=O)(O)O)cc1)C(=O)O; Ac3c = NC1(C(=O)O)CC1; Aib = CC(C)(N)C(=O)O
measured_endpoint: Fold induction of luciferase activity (fold)

Example cases with answers are listed next.
INSERT INTO measurements (molecule, measured_endpoint, assay_result) VALUES
  ('O=[N+]([O-])c1cc(S(=O)(=O)NCCc2c[nH]c3cc(Cl)ccc23)sc1Cl', 'Fold induction of luciferase activity', 48),
  ('CSCC[C@H](NC(=O)[C@@H](N)Cc1ccccc1)C(=O)NC(C)(C)C(=O)N[C@@H](Cc1ccc(CP(=O)(O)O)cc1)C(=O)N[C@@H](Cc1c[nH]c2cc(Cl)ccc12)C(=O)N[C@@H](CCC(=O)O)C(=O)NC1(C(=O)N[C@@H](CC(C)C)C(N)=O)CC1 [Control, reference compound] (H-FM[Aib][Pmp][Trp(6-Cl)]E[Ac3c]L-NH2)', 'Fold induction of luciferase activity', 4),
  ('O=[N+]([O-])c1cc(S(=O)(=O)Nc2cc(Cl)cc(Cl)c2)sc1Cl', 'Fold induction of luciferase activity', 64),
  ('O=[N+]([O-])c1cc(S(=O)(=O)NCc2cc(Cl)cc(Cl)c2)sc1Cl', 'Fold induction of luciferase activity', 90),
  ('O=[N+]([O-])c1cc(S(=O)(=O)Nc2ccc(C(F)(F)F)cc2)sc1Cl', 'Fold induction of luciferase activity', 84);

[A] O=[N+]([O-])c1cc(S(=O)(=O)NCc2ccc(C(F)(F)F)cc2)sc1Cl
[B] O=[N+]([O-])c1cc(S(=O)(=O)Nc2ccc(F)cc2)sc1Cl
Input: Which record would sort first by descending Fold induction of luciferase activity, A or B ? Your answer should be the label attached to the chosen record.
Output: B

[I] CN(c1ccc(C(F)(F)F)cc1)S(=O)(=O)c1cc([N+](=O)[O-])c(Cl)s1
[II] Cc1ccc(NS(=O)(=O)c2cc([N+](=O)[O-])c(Cl)s2)cc1
[III] O=[N+]([O-])c1cc(S(=O)(=O)NCCc2c[nH]c3ccccc23)sc1Cl
[IV] O=[N+]([O-])c1cc(S(=O)(=O)Nc2ccc(Cl)cc2)sc1Cl
Input: Ordering criterion: Fold induction of luciferase activity; begin with the maximum. Response format: the labels, sorted as the prompt asks.
Output: IV, II, III, I

[1] O=[N+]([O-])c1cc(S(=O)(=O)Nc2cc(F)cc(F)c2)sc1Cl
[2] O=[N+]([O-])c1cc(S(=O)(=O)Nc2nc3ccccc3[nH]2)ccc1Cl
Input: Hi! Which is lower in terms of Fold induction of luciferase activity, the first one 1 or the second one 2 ? Your answer should be the label attached to the chosen record.
Output: 2
